This section presents IC50 values reported for Progesterone receptor (Homo sapiens, UniProt P06401) in the literature.
System Name: Progesterone receptor (Homo sapiens, UniProt P06401)
Sequence (P06401 whole entry): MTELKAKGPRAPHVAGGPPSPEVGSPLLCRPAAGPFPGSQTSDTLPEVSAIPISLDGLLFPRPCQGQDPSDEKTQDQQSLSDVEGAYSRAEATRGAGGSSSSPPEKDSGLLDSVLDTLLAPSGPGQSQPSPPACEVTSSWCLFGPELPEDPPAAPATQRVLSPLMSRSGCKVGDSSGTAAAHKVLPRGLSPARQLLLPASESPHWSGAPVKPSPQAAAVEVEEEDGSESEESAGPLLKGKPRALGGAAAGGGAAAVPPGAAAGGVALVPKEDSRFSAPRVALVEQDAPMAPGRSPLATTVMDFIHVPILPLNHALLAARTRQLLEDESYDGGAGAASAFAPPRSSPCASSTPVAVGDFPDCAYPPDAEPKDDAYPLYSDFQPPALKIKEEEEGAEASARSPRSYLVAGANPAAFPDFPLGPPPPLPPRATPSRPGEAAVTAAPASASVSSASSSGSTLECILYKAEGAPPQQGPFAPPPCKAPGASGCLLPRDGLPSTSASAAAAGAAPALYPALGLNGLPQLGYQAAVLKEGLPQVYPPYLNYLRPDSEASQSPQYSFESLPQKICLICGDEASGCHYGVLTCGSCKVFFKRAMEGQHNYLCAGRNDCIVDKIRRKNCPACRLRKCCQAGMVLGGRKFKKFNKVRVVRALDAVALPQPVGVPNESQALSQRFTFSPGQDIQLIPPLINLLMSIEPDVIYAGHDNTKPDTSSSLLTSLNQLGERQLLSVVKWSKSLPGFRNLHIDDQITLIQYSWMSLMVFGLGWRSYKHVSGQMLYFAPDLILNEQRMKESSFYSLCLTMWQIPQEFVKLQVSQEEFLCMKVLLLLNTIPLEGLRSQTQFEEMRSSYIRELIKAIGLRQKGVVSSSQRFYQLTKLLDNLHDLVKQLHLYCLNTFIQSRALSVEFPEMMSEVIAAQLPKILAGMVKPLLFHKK
Recorded Endpoint: IC50 (nM)

I. C=CCSCC1=CC(C)(C)Nc2ccc(-c3cccc(OC)c3)cc21
II. N#Cc1ccc(-c2ccc3c(cnn3-c3ccc(F)cc3)c2)cc1
III. Cc1cc(C)cc(CC(O)(CC(C)(C)c2cc(F)ccc2O)C(=O)Nc2ccc3c(c2)COC3=O)c1 (stereo not given)
Order all 3 entries above by recorded IC50, highest first, lowest last. # format: label list in the order the request specifies II, I, III
(II: 2000 nM, I: 460 nM, III: 51 nM)

1. CC(C)(CC(Cc1ccccc1)C(=O)Nc1ccc2c(c1)COC2=O)c1ccccc1 (stereo not given)
2. C=CCSCC1=CC(C)(C)Nc2ccc(-c3ccccc3F)cc21
Which of the two gives a bigger number for IC50: 1 or 2 ? Mark your selection by writing its label. 1
(1: 2000 nM, 2: 360 nM)
